growth for assorted compounds
- System: U251 CNS
- ASSAY_COMMENT: NCI-60 one-dose screen, 48 h (100 = growth as untreated, 0 = no growth, -100 = all killed)
- ASSAY_CONDITIONS: 10 µM unless noted
Compounds without any hit were thinned out: in the full panel of roughly 83,000, 20% have a hit.
Give the value, in units of %, as a plain number.

Illustrative cases are given below, each with its answer.
C=C(C)[C@@H]1CC[C@]2(COP(=O)(OCC)OCC)CC[C@]3(C)[C@H](CC[C@@H]4[C@@]5(C)CC[C@H](OP(=O)(OCC)OCC)C(C)(C)[C@@H]5CC[C@]43C)[C@@H]12    42.2
O=S(=O)(NCCCNc1nccc(-c2[nH]c(-c3ccccc3)nc2-c2ccc(F)c(O)c2)n1)c1cccc(F)c1    99.4
COc1ccccc1N1CCN(C2=C(Cl)C(=O)c3ncccc3C2=O)CC1    102

Query block: // lookup growth for O=C(/C=C/c1ccccc1Cl)Nc1ncc(Cc2cc(Cl)ccc2Cl)s1
Result block: 16.6

Query block: // repeat for CC(C)[C@H]1c2[nH]c3ccccc3c2C[C@H]2C(=O)N(CCCCCCC(=O)NO)CC(=O)N12 and report
Result block: 81

Query block: Next record, please: Cc1ccc2c(n1)C(=O)C(Cl)=C(Nc1cc(C(F)(F)F)cc(C(F)(F)F)c1)C2=O
Result block: 85.2

Query block: Cool, now O=C(O)CC1CCN(c2ccc3nnc(Cl)n3n2)CC1
Result block: 110

Query block: Same question for COc1ccc(C(=NNS(=O)(=O)c2ccc(C)cc2)c2ccccc2)cc1OC please.
Result block: 96.1

Query block: Ok, now COc1cc(OC)cc(-c2cc(-c3c[nH]c4ccccc34)nc(-c3c[nH]c4ccccc34)c2C#N)c1
Result block: 100

// data source = PubChem BioAssay (NCI)
